Target: T1, Macaca fascicularis IL-36R on cells (Macaca fascicularis, UniProt A0A2K5WSK9 20-558)
T1 sequence: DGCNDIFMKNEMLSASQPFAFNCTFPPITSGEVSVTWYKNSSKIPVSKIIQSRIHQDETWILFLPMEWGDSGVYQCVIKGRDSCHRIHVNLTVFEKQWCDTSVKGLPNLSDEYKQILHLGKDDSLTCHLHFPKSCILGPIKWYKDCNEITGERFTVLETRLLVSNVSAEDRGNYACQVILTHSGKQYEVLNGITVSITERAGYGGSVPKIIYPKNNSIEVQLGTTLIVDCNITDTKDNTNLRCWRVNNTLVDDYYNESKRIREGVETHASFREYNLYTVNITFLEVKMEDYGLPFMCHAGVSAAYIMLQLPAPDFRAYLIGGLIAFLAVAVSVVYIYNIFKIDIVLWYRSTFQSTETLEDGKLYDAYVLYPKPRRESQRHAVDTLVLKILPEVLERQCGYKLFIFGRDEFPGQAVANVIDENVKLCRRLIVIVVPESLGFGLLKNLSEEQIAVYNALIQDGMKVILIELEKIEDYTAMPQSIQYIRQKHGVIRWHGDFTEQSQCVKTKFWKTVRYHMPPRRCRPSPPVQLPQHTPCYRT
Experiment: cell-based or functional assay
List of Max Inhibition (%), NFκB-luciferase, 500 pM hIL-36α values.
Give just the numeric value; % need not be written.

# example entries with known answers
binder	readoutValue
H4H14728P (antibody, human IgG4 S228P, kappa, V domains shown) VH: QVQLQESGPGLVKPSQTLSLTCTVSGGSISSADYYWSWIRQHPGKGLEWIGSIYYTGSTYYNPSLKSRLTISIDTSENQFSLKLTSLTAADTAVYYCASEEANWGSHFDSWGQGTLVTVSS VL: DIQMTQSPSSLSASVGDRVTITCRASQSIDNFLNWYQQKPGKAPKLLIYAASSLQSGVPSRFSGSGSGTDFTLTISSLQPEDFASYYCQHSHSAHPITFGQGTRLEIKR	93
H4H14699P2 (antibody, human IgG4 S228P, kappa, V domains shown, Fully human anti-IL-36R antibody) VH: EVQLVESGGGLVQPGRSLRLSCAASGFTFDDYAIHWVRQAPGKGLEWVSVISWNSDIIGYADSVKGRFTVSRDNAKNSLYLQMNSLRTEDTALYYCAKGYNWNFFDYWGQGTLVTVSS VL: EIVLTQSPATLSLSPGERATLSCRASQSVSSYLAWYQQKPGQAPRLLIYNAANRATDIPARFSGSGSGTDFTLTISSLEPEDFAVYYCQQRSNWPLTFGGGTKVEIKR	97
H4H14708P2 (antibody, human IgG4 S228P, kappa, V domains shown) VH: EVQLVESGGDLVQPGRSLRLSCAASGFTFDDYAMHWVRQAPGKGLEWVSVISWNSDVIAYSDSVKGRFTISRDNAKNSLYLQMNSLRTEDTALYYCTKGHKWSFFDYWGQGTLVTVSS VL: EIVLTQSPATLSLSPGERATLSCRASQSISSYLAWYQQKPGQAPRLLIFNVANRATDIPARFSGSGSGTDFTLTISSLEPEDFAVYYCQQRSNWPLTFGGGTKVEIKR	99
H4H14706P2 (antibody, human IgG4 S228P, kappa, V domains shown) VH: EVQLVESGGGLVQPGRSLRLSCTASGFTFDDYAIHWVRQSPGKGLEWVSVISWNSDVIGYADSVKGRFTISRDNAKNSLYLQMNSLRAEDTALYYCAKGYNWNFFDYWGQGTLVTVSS VL: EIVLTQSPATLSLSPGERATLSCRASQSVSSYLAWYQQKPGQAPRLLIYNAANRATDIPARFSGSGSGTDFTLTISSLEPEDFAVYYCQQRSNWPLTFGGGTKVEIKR	100
H4H14757P (antibody, human IgG4 S228P, kappa, V domains shown) VH: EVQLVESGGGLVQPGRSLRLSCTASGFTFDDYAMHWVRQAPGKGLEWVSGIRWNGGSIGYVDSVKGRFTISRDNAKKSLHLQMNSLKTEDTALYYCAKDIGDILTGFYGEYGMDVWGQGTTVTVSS VL: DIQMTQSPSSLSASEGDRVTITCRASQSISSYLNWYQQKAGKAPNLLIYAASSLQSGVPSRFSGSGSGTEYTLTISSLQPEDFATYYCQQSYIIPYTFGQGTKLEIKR	29

[ask] Fill blank: measured Max Inhibition (%), NFκB-luciferase, 500 pM hIL-36α of the binder H4H14700P2 (antibody, human IgG4 S228P, kappa, V domains shown) VH: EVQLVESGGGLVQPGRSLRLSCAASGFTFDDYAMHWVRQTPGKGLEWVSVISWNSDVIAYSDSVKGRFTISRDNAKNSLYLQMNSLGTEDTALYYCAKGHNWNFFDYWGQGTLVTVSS VL: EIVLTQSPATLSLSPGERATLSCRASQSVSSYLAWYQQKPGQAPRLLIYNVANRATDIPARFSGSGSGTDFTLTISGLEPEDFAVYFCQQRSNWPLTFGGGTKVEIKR is ____.
[reply] 99

[ask] Any idea what its Max Inhibition (%), NFκB-luciferase, 500 pM hIL-36α is? The binder is H4H14731P (antibody, human IgG4 S228P, kappa, V domains shown) VH: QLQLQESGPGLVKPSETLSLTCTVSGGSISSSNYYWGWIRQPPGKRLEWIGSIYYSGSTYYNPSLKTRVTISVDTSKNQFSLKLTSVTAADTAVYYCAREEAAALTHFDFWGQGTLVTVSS VL: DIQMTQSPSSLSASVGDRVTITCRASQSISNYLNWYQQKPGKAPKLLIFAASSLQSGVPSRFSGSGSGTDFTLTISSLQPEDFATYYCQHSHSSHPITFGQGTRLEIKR
[reply] 84
